# TARGET: T1, tip-chimeric peptide IhfA5-mIhfB4NTHI (nontypeable Haemophilus influenzae …)
# T1 construct: also called IHF(NTHI) tip chimeric peptide; IHFNTHI tip chimeric peptide
# T1 peptide: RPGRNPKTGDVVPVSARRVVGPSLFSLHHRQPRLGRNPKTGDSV
# ASSAY_DETAILS: SPR Biacore 3000, peptide immobilized, HuMab as analyte
OUTCOME_MEASURE: kon (M⁻¹ s⁻¹)
# number only, unit M⁻¹ s⁻¹ dropped from output

Q: Identify measured kon associated with humanized anti-tip monoclonal antibody, heavy chain SEQ ID NO: 2 and light chain SEQ ID NO: 7 (antibody, V domains shown, also called H10211 (1F8.F1 Humanized HC2) + L10210 (1F8.F1 Humanized LC1)) VH: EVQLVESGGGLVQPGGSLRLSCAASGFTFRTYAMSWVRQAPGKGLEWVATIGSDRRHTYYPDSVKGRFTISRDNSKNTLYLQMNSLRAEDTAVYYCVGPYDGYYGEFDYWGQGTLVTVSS VL: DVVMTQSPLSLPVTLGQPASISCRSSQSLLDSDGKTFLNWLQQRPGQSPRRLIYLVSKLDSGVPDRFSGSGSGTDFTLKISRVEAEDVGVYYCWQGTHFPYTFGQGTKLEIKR
Ans: 18000

Q: Determine from records and report kon for humanized anti-tip monoclonal antibody, heavy chain SEQ ID NO: 3 and light chain SEQ ID NO: 9 (antibody, V domains shown, also called H10212 (1F8.F1 Humanized HC3) + L10212 (1F8.F1 Humanized LC3)) VH: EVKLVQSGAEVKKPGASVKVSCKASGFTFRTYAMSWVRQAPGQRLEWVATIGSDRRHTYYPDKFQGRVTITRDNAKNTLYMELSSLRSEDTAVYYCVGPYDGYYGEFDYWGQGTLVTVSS VL: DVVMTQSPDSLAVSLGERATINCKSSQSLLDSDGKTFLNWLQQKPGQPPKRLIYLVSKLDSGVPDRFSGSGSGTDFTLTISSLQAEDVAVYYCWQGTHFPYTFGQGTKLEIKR
Ans: 79000

Q: Answer with the recorded kon of humanized anti-tip monoclonal antibody, heavy chain SEQ ID NO: 3 and light chain SEQ ID NO: 7 (antibody, V domains shown, also called H10212 (1F8.F1 Humanized HC3) + L10210 (1F8.F1 Humanized LC1)) VH: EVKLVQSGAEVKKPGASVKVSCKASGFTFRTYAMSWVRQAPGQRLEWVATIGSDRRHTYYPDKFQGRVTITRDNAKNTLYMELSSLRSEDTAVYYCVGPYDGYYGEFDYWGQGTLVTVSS VL: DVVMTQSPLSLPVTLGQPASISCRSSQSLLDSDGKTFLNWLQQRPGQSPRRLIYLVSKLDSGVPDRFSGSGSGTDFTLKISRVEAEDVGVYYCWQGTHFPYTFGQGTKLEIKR only.
Ans: 48000

Q: Output kon of humanized anti-tip monoclonal antibody, heavy chain SEQ ID NO: 1 and light chain SEQ ID NO: 7 (antibody, V domains shown, also called HuTipMab; TP-21949) VH: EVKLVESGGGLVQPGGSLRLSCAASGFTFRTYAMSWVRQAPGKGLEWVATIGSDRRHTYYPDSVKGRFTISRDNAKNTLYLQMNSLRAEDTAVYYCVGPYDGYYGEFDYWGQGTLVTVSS VL: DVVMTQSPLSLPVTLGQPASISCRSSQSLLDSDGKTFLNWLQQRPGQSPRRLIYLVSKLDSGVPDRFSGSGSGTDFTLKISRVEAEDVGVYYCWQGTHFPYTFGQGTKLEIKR
Ans: 31000

Q: Look up and state reported kon for humanized anti-tip monoclonal antibody, heavy chain SEQ ID NO: 2 and light chain SEQ ID NO: 8 (antibody, V domains shown, also called H10211 (1F8.F1 Humanized HC2) + L10211 (1F8.F1 Humanized LC2)) VH: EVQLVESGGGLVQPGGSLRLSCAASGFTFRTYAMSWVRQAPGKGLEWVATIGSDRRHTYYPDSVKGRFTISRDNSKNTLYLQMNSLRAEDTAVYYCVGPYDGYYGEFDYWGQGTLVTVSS VL: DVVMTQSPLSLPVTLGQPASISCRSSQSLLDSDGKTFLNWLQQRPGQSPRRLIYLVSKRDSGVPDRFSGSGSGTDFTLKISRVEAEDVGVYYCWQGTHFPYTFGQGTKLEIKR
Ans: 22000
